# assayed target: T1, VEGFR-1-Fc (UniProt P17948 27-338)
# T1 construct: domain: first three Ig domains; expressed in Drosophila S2 cells, purified on Protein A sepharose; also called VEGFR-1-Fc fusion protein; not shown: Fc fragment from the Signal-pIgPlus vector
# T1 sequence (P17948 27-338): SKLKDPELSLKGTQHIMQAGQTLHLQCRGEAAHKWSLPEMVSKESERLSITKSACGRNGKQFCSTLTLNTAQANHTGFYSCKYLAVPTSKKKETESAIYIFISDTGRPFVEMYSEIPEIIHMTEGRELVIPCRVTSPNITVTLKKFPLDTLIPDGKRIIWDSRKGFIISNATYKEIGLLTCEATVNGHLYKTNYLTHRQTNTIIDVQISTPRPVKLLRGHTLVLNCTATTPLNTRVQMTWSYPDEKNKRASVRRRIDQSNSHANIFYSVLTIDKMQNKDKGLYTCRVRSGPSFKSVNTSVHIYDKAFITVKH
# measurement protocol: receptor-Fc IP
measurement name: binding result

- binder: "63-9 (ligand) GQNHHEVVKFMDVYQRSYCHPREVCIDVGKEYPDEIEYIFKPPCVSVYRCGGCCNDEGLECVPTEESNITMQIMRITVPLSQGPKPVTISFLQHNKCECRPKKD"
  measurement name: "binding result"
  result: "no binding"
- binder: "32-9 (ligand) GQNHHEVVKSIDNEWRKTQCMPIETLVDIFQEFGVATNTFFKPPCVSVYRCGGCCNDEGLECVPTEESNITMQIMRITVPLSQGPKPVTISFLQHNKCECRPKKD"
  measurement name: "binding result"
  result: "no binding"
- binder: "44-16 (ligand) AHYNTEILKFMDVYQRSYCHPREVCIDVGKEFGVATNTFFKPSCVPLMRCGGCCNSEGLQCMNTSTSYLSKTLFEITVPLSQGPKPVTISFANHTSCRCMSKLD"
  measurement name: "binding result"
  result: "no binding"

Recorded values, source patent US20080058263A1.
